# Test system: KRAS PDC tumor spheroids (HUVEC+MSC), viability;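 also: spheroids exposed to compounds for seven days before readout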
# assay remarks: Anticancer human tumor 254851-301-R-J1-PDC patient-derived colon carcinoma cell line growth inhibition [KRAS2]; active = viability on the fitted dose curve at most 10% of control; inactive = the rest
# applied conditions: second compound 0.316 µM; first compound 0.0316 µM
Choose one outcome from this list and give only that: active, inactive

The examples below pair each entry with its known result.
compound	class label
CCNC(=O)CC1N=C(c2ccc(Cl)cc2)c2cc(OC)ccc2-n2c(C)nnc21 (stereo not given) + C=CC(=O)N1CCN(c2nc(=O)n(-c3c(C)ccnc3C(C)C)c3nc(-c4c(O)cccc4F)c(F)cc23)C(C)C1	inactive
Cn1ncnc1[C@H]1c2n[nH]c(=O)c3cc(F)cc(c23)N[C@@H]1c1ccc(F)cc1 + COc1cc2nc(C)nc(NC(C)c3cc(N)cc(C(F)(F)F)c3)c2cc1OC1CCOC1	inactive
Cn1nccc1Nc1nccc(-c2cc3c(s2)C(C)(C)N(CCN2CCOCC2)C3=O)n1 + C=CC(=O)N1CCN(c2nc(OCC3CCCN3C)nc3c2CCN(c2cccc4cccc(C)c24)C3)CC1CC#N	inactive
CCNC(=O)CC1N=C(c2ccc(Cl)cc2)c2cc(OC)ccc2-n2c(C)nnc21 (stereo not given) + COc1cc2nc(C)nc(NC(C)c3cc(N)cc(C(F)(F)F)c3)c2cc1OC1CCOC1	inactive
COc1cc2nccc(Oc3ccc(NC(=O)C4(C(=O)Nc5ccc(F)cc5)CC4)cc3)c2cc1OC + C=CC(=O)N1CCN(c2nc(OCC3CCCN3C)nc3c2CCN(c2cccc4cccc(C)c24)C3)CC1CC#N	inactive

Query: Test call for this compound, please: CC1(C)CCC(CN2CCN(c3ccc(C(=O)NS(=O)(=O)c4ccc(NCC5CCOCC5)c([N+](=O)[O-])c4)c(Oc4cnc5[nH]ccc5c4)c3)CC2)=C(c2ccc(Cl)cc2)C1 + CC1OCC2(CCN(c3cnc(Sc4ccnc(N)c4Cl)c(N)n3)CC2)C1N
Reply: inactive

Query: How was CC(C)n1nc(-c2ccc3oc(N)nc3c2)c2c(N)ncnc21 + C=CC(=O)N1CCN(c2nc(=O)n(-c3c(C)ccnc3C(C)C)c3nc(-c4c(O)cccc4F)c(F)cc23)C(C)C1 classified in this test?
Reply: inactive

Query: What classification did CC1(C)CCC(CN2CCN(c3ccc(C(=O)NS(=O)(=O)c4ccc(NCC5CCOCC5)c([N+](=O)[O-])c4)c(Oc4cnc5[nH]ccc5c4)c3)CC2)=C(c2ccc(Cl)cc2)C1 + C=CC(=O)N1CCN(c2nc(OCC3CCCN3C)nc3c2CCN(c2cccc4cccc(C)c24)C3)CC1CC#N end up with in this test?
Reply: inactive

Query: Look up the recorded call for CC(=O)Nc1cccc(-n2c(=O)n(C3CC3)c(=O)c3c(Nc4ccc(I)cc4F)n(C)c(=O)c(C)c32)c1 + CC1OCC2(CCN(c3cnc(Sc4ccnc(N)c4Cl)c(N)n3)CC2)C1N in this test.
Reply: active

Query: Per the records of this test, what outcome belongs to O=C(c1cc(Cc2n[nH]c(=O)c3ccccc23)ccc1F)N1CCN(C(=O)C2CC2)CC1 + CNCc1ccccc1-c1csc(C(C)Nc2nc(C)nc3cc(OC)c(OC)cc23)c1 ?
Reply: inactive
